Listed next: entries and their corresponding LD50.
assay: in vivo; conditions: mouse, ip
Give the value, in units of mg/kg, as a plain number.

Solved entries (count: 3):
Cc1ccc(C(=O)c2ccc(CC(=O)NCC(=O)O)n2C)cc1: 700
Cc1ccc(C(=O)c2ccc(CC(=O)N3CCN(C)CC3)n2C)cc1: 770
Cc1ccc(C(=O)c2ccc(CC(=O)N3CCOCC3)n2C)cc1: 1500

Note: attention shifts to another entry.
Param item = "COc1ccccc1OC(=O)CNC(=O)Cc1ccc(C(=O)c2ccc(C)cc2)n1C" ; retrieve measured LD50.
1370

###

system: cough provoked by mechanical stimulation of the tracheal bifurcation mucosa; assay: antitussive activity, mechanically provoked coughing; type: in vivo, albino Guinea-pigs; settings: 100 mg/Kg per os, 1 h after administration
If the reported % inhibition, cough amplitude equals or exceeds 40%, assign 1. If not, assign -1.

Example entries and their recorded answers appear below.
COc1ccccc1OC(=O)CNC(=O)Cc1ccc(C(=O)c2ccc(C)cc2)n1C: -1
Cc1ccc(C(=O)c2ccc(CC(=O)O)n2C)cc1 [Tolmetin Na.2H2 O, reference compound]: -1
Cc1ccc(C(=O)c2ccc(CC(=O)NCC(=O)O)n2C)cc1: -1
Cc1ccc(C(=O)c2ccc(CC(=O)N3CCN(C)CC3)n2C)cc1: 1

In plain terms: is recorded % inhibition, cough amplitude at least 40% for "Cc1ccc(C(=O)c2ccc(CC(=O)N3CCOCC3)n2C)cc1" ?
-1

###

system: gastric lesions; type: in vivo, male Wistar rats; settings: 100 mg/Kg orally, 4 consecutive days
quantity_kind: mean no. of lesions

Cc1ccc(C(=O)c2ccc(CC(=O)NCC(=O)O)n2C)cc1: 2
COc1ccccc1OC(=O)CNC(=O)Cc1ccc(C(=O)c2ccc(C)cc2)n1C: 2
CCOC(=O)c1ccc(NC(=O)Cc2ccc(C(=O)c3ccc(C)cc3)n2C)cc1: 1.5
Cc1ccc(C(=O)c2ccc(CC(=O)N3CCN(C)CC3)n2C)cc1: 1
Cc1ccc(C(=O)c2ccc(CC(=O)NNCC(=O)N3CCN(C)CC3)n2C)cc1: 2

Note: attention shifts to another entry.
Param item = "Cc1ccc(C(=O)c2ccc(CC(=O)N3CCOCC3)n2C)cc1" ; retrieve measured mean no. of lesions.
1.5

###

system: carrageenin-induced oedema; experiment: carrageenin-induced oedema test (anti-inflammatory activity); format: in vivo, albino male Wistar rats; details: 100 mg/Kg per os, 6 h
quantity_kind: oedema % inhibition (%)
Give the value, in units of %, as a plain number.

Solved entries (count: 2):
Cc1ccc(C(=O)c2ccc(CC(=O)N3CCOCC3)n2C)cc1 [Compound 3-a]: 69.7
CCOC(=O)c1ccc(NC(=O)Cc2ccc(C(=O)c3ccc(C)cc3)n2C)cc1 [Compound 1-h]: 69.0

Param item = Cc1ccc(C(=O)c2ccc(CC(=O)O)n2C)cc1 [Tolmetin Na.2H2 O, reference compound] ; retrieve measured oedema % inhibition.
54.8

Now this one: Cc1ccc(C(=O)c2ccc(CC(=O)N3CCN(C)CC3)n2C)cc1 [Compound 3-b]
69.0

Now this one: Cc1ccc(C(=O)c2ccc(CC(=O)NCC(=O)O)n2C)cc1 [Compound 1-c]
67.0

Now this one: COc1ccccc1OC(=O)CNC(=O)Cc1ccc(C(=O)c2ccc(C)cc2)n1C [Compound 1-d]
67.5

Now this one: Cc1ccc(C(=O)c2ccc(CC(=O)NNCC(=O)N3CCN(C)CC3)n2C)cc1 [Compound 1-o]
77.5

meta.source: patent US4882349A
